Data provenance is the supplement of paper PMC10307832.

System: NCI-H650
PROCEDURE_DETAILS: relative viability (nuclei count vs DMSO), 5 days (fraction); higher = more cells survive
CONDITION_NOTES: first compound 0.1265 µM

{"COMPOUND": "COc1cc(N2CCC(C(N)=O)CC2)ccc1Nc1nc(N)c(Cl)c(Nc2ccccc2S(=O)(=O)C(C)C)n1 [HG-5-88-01] + NC(=O)Nc1cc(-c2cccc(F)c2)sc1C(=O)N[C@H]1CCCNC1 [AZD7762] (partner 0.2 µM)", "relative viability": 1.07}
{"COMPOUND": "COc1cc(N2CCC(C(N)=O)CC2)ccc1Nc1nc(N)c(Cl)c(Nc2ccccc2S(=O)(=O)C(C)C)n1 [HG-5-88-01] + CC(=O)c1c(C)c2cnc(Nc3ccc(N4CCNCC4)cn3)nc2n(C2CCCC2)c1=O [Palbociclib] (partner 0.5 µM)", "relative viability": 0.341}
{"COMPOUND": "Clc1ccc(Nc2nnc(Cc3ccncc3)c3ccccc23)cc1 [Vatalanib] + CCNC(=O)c1noc(-c2cc(C(C)C)c(O)cc2O)c1-c1ccc(CN2CCOCC2)cc1 [Luminespib] (partner 0.01 µM)", "relative viability": 0.628}

* * *

Tested on: HCC-15
PROCEDURE_DETAILS: relative viability (nuclei count vs DMSO), 5 days (fraction); higher = more cells survive
CONDITION_NOTES: first compound 2.53 µM
Measured relative viability accompanies every entry in the list below.

{"MOLECULE": "CCCCCCCCCCCC1=C(O)C(=O)C=C(O)C1=O [Embelin] + COc1cccc2cc(-c3nc([C@H]4CC[C@H](C(=O)O)CC4)n4ncnc(N)c34)[nH]c12 [OSI-027] (partner 0.5 µM)", "relative viability": 0.721}
{"MOLECULE": "CCCCCCCCCCCC1=C(O)C(=O)C=C(O)C1=O [Embelin] + Cc1nc(Nc2ncc(C(=O)Nc3c(C)cccc3Cl)s2)cc(N2CCN(CCO)CC2)n1 [Dasatinib] (partner 0.075 µM)", "relative viability": 0.711}
{"MOLECULE": "CCCCCCCCCCCC1=C(O)C(=O)C=C(O)C1=O [Embelin] + Cc1cc(Nc2cc(N3CCN(C)CC3)nc(Sc3ccc(NC(=O)C4CC4)cc3)n2)n[nH]1 [Tozasertib] (partner 0.1 µM)", "relative viability": 0.55}
{"MOLECULE": "CCCCCCCCCCCC1=C(O)C(=O)C=C(O)C1=O [Embelin] + CC(=O)Nc1cccc(-n2c(=O)n(C3CC3)c(=O)c3c(Nc4ccc(I)cc4F)n(C)c(=O)c(C)c32)c1 [Trametinib] (partner 0.02 µM)", "relative viability": 0.345}
{"MOLECULE": "CCCCCCCCCCCC1=C(O)C(=O)C=C(O)C1=O [Embelin] + O=C(CCCCCCC(=O)Nc1ccccc1)NO [Vorinostat] (partner 1 µM)", "relative viability": 0.908}
{"MOLECULE": "CCCCCCCCCCCC1=C(O)C(=O)C=C(O)C1=O [Embelin] + CCNC(=O)c1noc(-c2cc(C(C)C)c(O)cc2O)c1-c1ccc(CN2CCOCC2)cc1 [Luminespib] (partner 0.01 µM)", "relative viability": 0.3}
{"MOLECULE": "CCCCCCCCCCCC1=C(O)C(=O)C=C(O)C1=O [Embelin] + CC(C)C[C@H](NC(=O)[C@H](Cc1ccccc1)NC(=O)c1cnccn1)B(O)O [Bortezomib] (partner 0.002 µM)", "relative viability": 1.18}

* * *

Test system: LC-2-ad
PROCEDURE_DETAILS: relative viability (nuclei count vs DMSO), 5 days (fraction); higher = more cells survive
CONDITION_NOTES: first compound 4 µM
Rule for this label: 1 means relative viability is less than 0.8; 0 means relative viability is at least 0.8.

{"MOLECULE": "Clc1ccc(Nc2nnc(Cc3ccncc3)c3ccccc23)cc1 [Vatalanib] + CS(=O)(=O)CCNCc1ccc(-c2ccc3ncnc(Nc4ccc(OCc5cccc(F)c5)c(Cl)c4)c3c2)o1 [Lapatinib] (partner 2 µM)", "GROUP_LABEL": 0}
{"MOLECULE": "COc1cc(N2CCC(C(N)=O)CC2)ccc1Nc1nc(N)c(Cl)c(Nc2ccccc2S(=O)(=O)C(C)C)n1 [HG-5-88-01] + Nc1ncn([C@H]2C[C@H](O)[C@@H](CO)O2)c(=O)n1 [Decitabine] (partner 2 µM)", "GROUP_LABEL": 0}
{"MOLECULE": "Clc1ccc(Nc2nnc(Cc3ccncc3)c3ccccc23)cc1 [Vatalanib] + Cc1cc(Nc2cc(N3CCN(C)CC3)nc(Sc3ccc(NC(=O)C4CC4)cc3)n2)n[nH]1 [Tozasertib] (partner 0.1 µM)", "GROUP_LABEL": 1}
{"MOLECULE": "Clc1ccc(Nc2nnc(Cc3ccncc3)c3ccccc23)cc1 [Vatalanib] + CC(=O)c1c(C)c2cnc(Nc3ccc(N4CCNCC4)cn3)nc2n(C2CCCC2)c1=O [Palbociclib] (partner 0.5 µM)", "GROUP_LABEL": 1}
{"MOLECULE": "C[C@@H]1CN(CC(=O)Nc2ccc3c(c2)Cc2cccc(-c4cc(=O)cc(N5CCOCC5)o4)c2S3)C[C@H](C)O1 + CS(=O)(=O)CCNCc1ccc(-c2ccc3ncnc(Nc4ccc(OCc5cccc(F)c5)c(Cl)c4)c3c2)o1 [Lapatinib] (partner 2 µM)", "GROUP_LABEL": 0}
{"MOLECULE": "Clc1ccc(Nc2nnc(Cc3ccncc3)c3ccccc23)cc1 [Vatalanib] + N=C(N)NC(=N)NCCc1ccccc1 [Phenformin] (partner 250 µM)", "GROUP_LABEL": 1}
{"MOLECULE": "C[C@@H]1CN(CC(=O)Nc2ccc3c(c2)Cc2cccc(-c4cc(=O)cc(N5CCOCC5)o4)c2S3)C[C@H](C)O1 + C[C@@H](Oc1cc(-c2cnn(C3CCNCC3)c2)cnc1N)c1c(Cl)ccc(F)c1Cl [Crizotinib] (partner 1 µM)", "GROUP_LABEL": 1}
{"MOLECULE": "COc1cc(N2CCC(C(N)=O)CC2)ccc1Nc1nc(N)c(Cl)c(Nc2ccccc2S(=O)(=O)C(C)C)n1 [HG-5-88-01] + COc1cccc2cc(-c3nc([C@H]4CC[C@H](C(=O)O)CC4)n4ncnc(N)c34)[nH]c12 [OSI-027] (partner 0.5 µM)", "GROUP_LABEL": 1}
{"MOLECULE": "Clc1ccc(Nc2nnc(Cc3ccncc3)c3ccccc23)cc1 [Vatalanib] + Nc1ncn([C@H]2C[C@H](O)[C@@H](CO)O2)c(=O)n1 [Decitabine] (partner 2 µM)", "GROUP_LABEL": 0}
{"MOLECULE": "C[C@@H]1CN(CC(=O)Nc2ccc3c(c2)Cc2cccc(-c4cc(=O)cc(N5CCOCC5)o4)c2S3)C[C@H](C)O1 + Cc1nc(NC(=O)N2CCC[C@H]2C(N)=O)sc1-c1ccnc(C(C)(C)C(F)(F)F)c1 [Alpelisib] (partner 2 µM)", "GROUP_LABEL": 0}
{"MOLECULE": "Clc1ccc(Nc2nnc(Cc3ccncc3)c3ccccc23)cc1 [Vatalanib] + Cc1nc(Nc2ncc(C(=O)Nc3c(C)cccc3Cl)s2)cc(N2CCN(CCO)CC2)n1 [Dasatinib] (partner 0.075 µM)", "GROUP_LABEL": 1}
{"MOLECULE": "Clc1ccc(Nc2nnc(Cc3ccncc3)c3ccccc23)cc1 [Vatalanib] + Cc1nc(NC(=O)N2CCC[C@H]2C(N)=O)sc1-c1ccnc(C(C)(C)C(F)(F)F)c1 [Alpelisib] (partner 2 µM)", "GROUP_LABEL": 0}
{"MOLECULE": "C[C@@H]1CN(CC(=O)Nc2ccc3c(c2)Cc2cccc(-c4cc(=O)cc(N5CCOCC5)o4)c2S3)C[C@H](C)O1 + CC(=O)Nc1cccc(-n2c(=O)n(C3CC3)c(=O)c3c(Nc4ccc(I)cc4F)n(C)c(=O)c(C)c32)c1 [Trametinib] (partner 0.02 µM)", "GROUP_LABEL": 0}
{"MOLECULE": "Clc1ccc(Nc2nnc(Cc3ccncc3)c3ccccc23)cc1 [Vatalanib] + COc1cccc2cc(-c3nc([C@H]4CC[C@H](C(=O)O)CC4)n4ncnc(N)c34)[nH]c12 [OSI-027] (partner 0.5 µM)", "GROUP_LABEL": 0}
{"MOLECULE": "COc1cc(N2CCC(C(N)=O)CC2)ccc1Nc1nc(N)c(Cl)c(Nc2ccccc2S(=O)(=O)C(C)C)n1 [HG-5-88-01] + CS(=O)(=O)CCNCc1ccc(-c2ccc3ncnc(Nc4ccc(OCc5cccc(F)c5)c(Cl)c4)c3c2)o1 [Lapatinib] (partner 2 µM)", "GROUP_LABEL": 1}
{"MOLECULE": "C[C@@H]1CN(CC(=O)Nc2ccc3c(c2)Cc2cccc(-c4cc(=O)cc(N5CCOCC5)o4)c2S3)C[C@H](C)O1 + O=C(CCCCCCC(=O)Nc1ccccc1)NO [Vorinostat] (partner 1 µM)", "GROUP_LABEL": 1}

* * *

Test system: Calu-6
PROCEDURE_DETAILS: relative viability (nuclei count vs DMSO), 5 days (fraction); higher = more cells survive
CONDITION_NOTES: first compound 4 µM

{"COMPOUND": "COc1cc(N2CCC(C(N)=O)CC2)ccc1Nc1nc(N)c(Cl)c(Nc2ccccc2S(=O)(=O)C(C)C)n1 [HG-5-88-01] + CC1(C)CCC(c2ccc(Cl)cc2)=C(CN2CCN(c3ccc(C(=O)NS(=O)(=O)c4ccc(N[C@H](CCN5CCOCC5)CSc5ccccc5)c(S(=O)(=O)C(F)(F)F)c4)cc3)CC2)C1 [Navitoclax] (partner 0.5 µM)", "relative viability": 0.46}
{"COMPOUND": "Clc1ccc(Nc2nnc(Cc3ccncc3)c3ccccc23)cc1 [Vatalanib] + CC1(C)CCC(c2ccc(Cl)cc2)=C(CN2CCN(c3ccc(C(=O)NS(=O)(=O)c4ccc(N[C@H](CCN5CCOCC5)CSc5ccccc5)c(S(=O)(=O)C(F)(F)F)c4)cc3)CC2)C1 [Navitoclax] (partner 0.5 µM)", "relative viability": 0.757}
